- TGT: T1, NCR3 on cell (on-cell binding in the affinity-maturation table) (human, UniProt O14931 19-201, limits assumed)
- T1 construct: On cell
- T1 sequence (looked up): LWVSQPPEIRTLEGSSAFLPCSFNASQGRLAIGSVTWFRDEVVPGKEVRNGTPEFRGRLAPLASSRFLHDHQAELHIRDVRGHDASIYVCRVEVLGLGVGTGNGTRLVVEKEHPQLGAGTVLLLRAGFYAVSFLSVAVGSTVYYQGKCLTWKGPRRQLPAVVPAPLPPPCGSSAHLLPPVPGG
- METHOD: on-cell binding, Fab on NCR3
MEASUREMENT NAME: EC50 (nM)
Write down the numeric answer in nM and omit the unit.

Illustrative cases are given below, each with its answer.
BINDER	MEASUREMENT NAME	READOUT VALUE
NCR3.18.15 (Fab, V domains shown, substitutions derived against parental HC3) VH: EVQLVESGGGLVQPGGSLRLSCAASGFNVSSSSIHWVRQAPGKGLEWVASISSSSGSTSYADSVKGRFTISADTSKNTAYLQMNSLRAEDTAVYYCARRTSSHYISYYDSFYYAGMDYWGQGTLVTVSS VL: DIQMTQSPSSLSASVGDRVTITCRASQSVSSAVAWYQQKPGKAPKLLIYSASSLYSGVPSRFSGSRSGTDFTLTISSLQPEDFATYYCQQSSSSLITFGQGTKVEIKR	EC50	6.76
NCR3.18.4 (Fab, V domains shown, substitutions derived against parental HC3) VH: EVQLVESGGGLVQPGGSLRLSCAASGFNVSSSSIHWVRQAPGKGLEWVASISSSSGSTSYADSVKGRFTISADTSKNTAYLQMNSLRAEDTAVYYCARRISSHYMSYYDSFYYAGMDYWGQGTLVTVSS VL: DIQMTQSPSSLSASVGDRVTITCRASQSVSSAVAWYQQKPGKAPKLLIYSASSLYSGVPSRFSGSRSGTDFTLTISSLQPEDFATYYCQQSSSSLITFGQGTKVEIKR	EC50	1.44
NCR3.18.1 (Fab, V domains shown, substitutions derived by comparing with parental HC3) VH: EVQLVESGGGLVQPGGSLRLSCAASGFNVSSSSIHWVRQAPGKGLEWVASISSSSGSTSYADSVKGRFTISADTSKNTAYLQMNSLRAEDTAVYYCARRASSRFRSYYDSFYYAGMDYWGQGTLVTVSS VL: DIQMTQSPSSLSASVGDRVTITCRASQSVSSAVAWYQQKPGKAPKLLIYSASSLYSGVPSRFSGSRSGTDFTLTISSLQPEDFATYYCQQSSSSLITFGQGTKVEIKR	EC50	2.14
NCR3.18.7 (Fab, V domains shown, substitutions derived against parental HC3) VH: EVQLVESGGGLVQPGGSLRLSCAASGFNVSSSSIHWVRQAPGKGLEWVASISSSSGSTSYADSVKGRFTISADTSKNTAYLQMNSLRAEDTAVYYCARRISSYYISYYDSFYYAGMDYWGQGTLVTVSS VL: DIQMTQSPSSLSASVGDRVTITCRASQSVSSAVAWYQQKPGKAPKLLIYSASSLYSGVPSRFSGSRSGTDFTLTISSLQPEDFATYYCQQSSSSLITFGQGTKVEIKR	EC50	3.19

Proceed to the following item.
Record summary for NCR3.18.14 (Fab, V domains shown, substitutions derived against parental HC3) VH: EVQLVESGGGLVQPGGSLRLSCAASGFNVSSSSIHWVRQAPGKGLEWVASISSSSGSTSYADSVKGRFTISADTSKNTAYLQMNSLRAEDTAVYYCARRTGSYYMTYYDSFYYAGMDYWGQGTLVTVSS VL: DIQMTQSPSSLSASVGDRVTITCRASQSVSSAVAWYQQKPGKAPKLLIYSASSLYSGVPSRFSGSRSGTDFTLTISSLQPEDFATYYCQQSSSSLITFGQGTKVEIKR : reported EC50 = 3.11

These measurements were taken from patent US20240279331A1.
